Biological target: JAK1 (Homo sapiens)
Sequence (P23458 whole entry): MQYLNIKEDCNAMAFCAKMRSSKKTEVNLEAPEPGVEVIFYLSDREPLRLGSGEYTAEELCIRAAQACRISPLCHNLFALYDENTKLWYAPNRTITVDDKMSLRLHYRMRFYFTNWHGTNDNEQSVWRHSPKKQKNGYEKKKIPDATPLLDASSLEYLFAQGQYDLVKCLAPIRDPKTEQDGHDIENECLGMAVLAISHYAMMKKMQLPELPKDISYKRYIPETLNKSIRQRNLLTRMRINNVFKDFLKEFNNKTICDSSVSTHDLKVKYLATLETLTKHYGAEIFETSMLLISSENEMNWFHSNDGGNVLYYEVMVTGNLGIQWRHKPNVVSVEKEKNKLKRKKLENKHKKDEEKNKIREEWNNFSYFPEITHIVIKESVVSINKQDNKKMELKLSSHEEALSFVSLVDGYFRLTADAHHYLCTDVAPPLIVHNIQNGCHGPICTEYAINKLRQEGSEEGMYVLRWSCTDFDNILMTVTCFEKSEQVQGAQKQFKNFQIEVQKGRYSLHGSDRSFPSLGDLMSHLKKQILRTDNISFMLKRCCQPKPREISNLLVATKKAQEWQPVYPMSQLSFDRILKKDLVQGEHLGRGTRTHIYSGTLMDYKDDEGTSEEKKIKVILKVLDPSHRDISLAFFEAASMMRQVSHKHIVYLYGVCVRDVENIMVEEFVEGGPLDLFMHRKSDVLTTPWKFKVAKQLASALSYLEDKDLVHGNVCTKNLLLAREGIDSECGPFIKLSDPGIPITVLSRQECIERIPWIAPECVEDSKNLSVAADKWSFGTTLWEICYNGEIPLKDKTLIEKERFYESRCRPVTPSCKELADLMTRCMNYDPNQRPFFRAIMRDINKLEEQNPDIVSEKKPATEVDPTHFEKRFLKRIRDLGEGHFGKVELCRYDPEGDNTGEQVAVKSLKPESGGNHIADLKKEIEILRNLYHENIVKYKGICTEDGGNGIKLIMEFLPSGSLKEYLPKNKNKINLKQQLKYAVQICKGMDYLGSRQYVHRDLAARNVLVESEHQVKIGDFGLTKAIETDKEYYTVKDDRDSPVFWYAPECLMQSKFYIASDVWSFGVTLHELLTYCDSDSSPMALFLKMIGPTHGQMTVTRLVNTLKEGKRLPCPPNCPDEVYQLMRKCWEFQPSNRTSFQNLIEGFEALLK
Assay: Phospho-STAT3 (Tyr705) ACUMEN H1975-JAK1 cell-based assay
Design: endogenous in cells
Settings: H1975 NSCLC cells, 4 hr; n=1; read-out: IC50, pSTAT3 (Tyr705) in H1975 cells
Description: Phospho-STAT3 (Tyr705) ACUMEN Protocol—H1975-JAK1 Cell-Based Assay An H1975-JAK1 cellular assay is used to confirm the potency of test compounds in NSCLC cells in which the STAT3 pathway is activated by autocrine IL-6 loop. […]
EXPERIMENTAL_ENDPOINT: IC50 (nM)
Give a bare numeral; the unit nM is implied.

Enquiry: Given the entry Cc1cc(Nc2cc(O[C@H]3CC[C@@H](NC[C@@H](O)C(F)(F)F)CC3)cc3c2ncn3C)nn1C , report its measured IC50.
Return: 297
